Parameter: In vitro growth inhb HCT116 % Inhb at 50 (μM). Scope: all listed entries.
tested on: HCT116 cells; assay: Cell proliferation screen (SYBR Green, Biomek FX); assay type: cell-based, human; details: 50 μM
measured.attribute: In vitro growth inhb HCT116 % Inhb at 50 (μM) (%)

>>> endpoint_value("Nc1nc(S)nc(O)c1/N=C/c1ccccc1")
70
>>> endpoint_value("CCCCC(=O)c1ccc(O)cc1O")
70
>>> endpoint_value("C/C(O)=C1/C(=O)N(c2nc3ccccc3s2)N=C1c1ccccc1")
70
>>> endpoint_value("Cc1c(Br)cc(NCC(=O)N/N=C\\c2cc([N+](=O)[O-])ccc2O)cc1Br")
70
>>> endpoint_value("COc1ccc(-c2cnc3c(O)nc(O)nc3n2)cc1")
40
>>> endpoint_value("O=C(Cn1cnc([N+](=O)[O-])n1)N/N=C/c1ccc(O)cc1O")
70
>>> endpoint_value("O=c1[nH]ncc(N/N=C\\c2ccc(O)c([N+](=O)[O-])c2)c1Cl")
40
>>> endpoint_value("CS(=O)(=O)NNC(=O)C(=O)NNc1ccccc1")
40

---

Listing of recorded inhibition at 100 µM by entry.
Target: hLigI (Homo sapiens, UniProt P18858)
Construct: made in house
Sequence (P18858 whole entry): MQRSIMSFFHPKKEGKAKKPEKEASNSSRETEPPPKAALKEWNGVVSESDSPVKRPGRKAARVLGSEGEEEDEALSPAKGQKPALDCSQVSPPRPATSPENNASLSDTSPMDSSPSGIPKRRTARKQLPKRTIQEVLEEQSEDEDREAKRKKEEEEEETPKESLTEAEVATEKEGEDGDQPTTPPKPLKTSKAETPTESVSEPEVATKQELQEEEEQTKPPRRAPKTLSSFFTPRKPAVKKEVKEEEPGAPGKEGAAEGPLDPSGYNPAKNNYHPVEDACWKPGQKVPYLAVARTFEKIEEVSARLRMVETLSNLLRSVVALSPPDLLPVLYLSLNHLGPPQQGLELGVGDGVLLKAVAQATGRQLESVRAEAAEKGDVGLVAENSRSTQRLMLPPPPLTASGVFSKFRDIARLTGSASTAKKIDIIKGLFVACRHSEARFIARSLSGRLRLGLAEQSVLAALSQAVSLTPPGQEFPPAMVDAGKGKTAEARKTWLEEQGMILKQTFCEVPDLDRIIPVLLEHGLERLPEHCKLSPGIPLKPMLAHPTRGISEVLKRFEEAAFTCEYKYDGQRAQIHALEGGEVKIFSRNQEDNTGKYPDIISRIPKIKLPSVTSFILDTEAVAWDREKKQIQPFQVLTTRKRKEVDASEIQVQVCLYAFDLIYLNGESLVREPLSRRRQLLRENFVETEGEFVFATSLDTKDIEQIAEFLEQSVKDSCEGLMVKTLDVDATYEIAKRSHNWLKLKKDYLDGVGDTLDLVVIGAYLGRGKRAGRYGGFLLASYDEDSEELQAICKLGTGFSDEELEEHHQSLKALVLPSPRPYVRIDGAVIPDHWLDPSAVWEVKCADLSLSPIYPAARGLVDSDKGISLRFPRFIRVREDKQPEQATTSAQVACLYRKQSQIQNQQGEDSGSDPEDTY
Assay: High-throughput fluorescence-based DNA joining (ligation) assay
Assay type: biochemical
Conditions: 100 μM; read-out: % of inhibition @ 100 μM (Helen's data) hLigI
Method: Candidate ligase inhibitors identified by CADD were assayed for their ability to inhibit hLigI and T4 DNA ligase using a high-throughput, fluorescence energy transfer-based DNA joining assay (22). […] DNA binding by the candidate DNA ligase inhibitors was measured by displacement of ethidium bromide from DNA as previously described (30). […]
measured.attribute: inhibition at 100 µM

>>> endpoint_value("O=C(O)c1ccccc1Nc1ccc([N+](=O)[O-])c2nonc12 [Compound 16]")
"< 20%"
>>> endpoint_value("Cc1oc(C(=O)O)cc1CSCc1cc(C(=O)O)c(C)o1 [Compound 197]")
"91%"
>>> endpoint_value("O=c1[nH]cc(/C=N/Nc2ncnc3[nH]cnc23)c(=O)[nH]1 [Compound 208]")
"21%"
>>> endpoint_value("Nn1cnnc1N/N=C/c1cc([N+](=O)[O-])c(Cl)cc1Cl [Compound 195]")
"26%"

---

target: human DNA ligase III (Homo sapiens, UniProt P49916); test: High-throughput fluorescence-based DNA joining (ligation) assay; assay type: biochemical; details: read-out: % of inhibition @ 100 μM (Helen's data) hLigIII
Sequence (P49916 1-862 isoform P49916-4): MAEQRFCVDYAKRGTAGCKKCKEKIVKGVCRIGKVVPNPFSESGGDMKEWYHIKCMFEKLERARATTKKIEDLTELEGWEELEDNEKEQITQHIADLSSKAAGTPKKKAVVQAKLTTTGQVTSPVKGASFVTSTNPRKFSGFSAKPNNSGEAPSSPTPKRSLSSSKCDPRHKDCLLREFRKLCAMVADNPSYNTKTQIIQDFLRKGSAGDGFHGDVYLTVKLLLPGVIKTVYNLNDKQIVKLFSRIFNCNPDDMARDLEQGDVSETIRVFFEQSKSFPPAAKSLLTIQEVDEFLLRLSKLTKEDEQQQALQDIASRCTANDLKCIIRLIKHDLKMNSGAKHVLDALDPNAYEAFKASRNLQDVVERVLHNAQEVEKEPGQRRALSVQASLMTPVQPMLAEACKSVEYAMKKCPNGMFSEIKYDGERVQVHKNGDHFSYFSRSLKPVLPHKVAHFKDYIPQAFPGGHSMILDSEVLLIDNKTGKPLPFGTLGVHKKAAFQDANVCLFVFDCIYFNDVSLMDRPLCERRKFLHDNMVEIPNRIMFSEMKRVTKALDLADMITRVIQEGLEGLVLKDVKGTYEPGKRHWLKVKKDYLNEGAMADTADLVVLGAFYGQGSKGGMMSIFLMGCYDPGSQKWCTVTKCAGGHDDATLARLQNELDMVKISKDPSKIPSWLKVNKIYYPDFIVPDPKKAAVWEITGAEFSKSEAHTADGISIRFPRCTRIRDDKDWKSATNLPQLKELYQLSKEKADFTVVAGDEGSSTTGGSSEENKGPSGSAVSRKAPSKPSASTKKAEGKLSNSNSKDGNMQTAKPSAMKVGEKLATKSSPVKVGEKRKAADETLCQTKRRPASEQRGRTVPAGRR
inhibition at 100 µM reference
measured.attribute: inhibition at 100 µM

>>> endpoint_value("O=C(c1ccc(O)cc1)c1ccccc1O [Compound 200]")
"60%"
>>> endpoint_value("COC(=O)c1scc(Br)c1O [Compound 124]")
"< 20%"
>>> endpoint_value("O=C(Nc1nc2ccccc2s1)c1ccc(Cl)c([N+](=O)[O-])c1 [Compound 165]")
"< 20%"
>>> endpoint_value("O=C(O)CSc1cc(Cl)c2nonc2c1[N+](=O)[O-] [Compound 64]")
"49%"
>>> endpoint_value("Sc1nccc(-c2cccnc2)n1 [Compound 130]")
"< 20%"
>>> endpoint_value("C=CCN1C(=O)/C(=N\\NC(=O)c2ccccc2O)c2ccccc21 [Compound 78]")
"> 20%"
>>> endpoint_value("O=C(COC(=O)c1ccc2ccccc2c1O)c1cccs1 [Compound 214]")
"42%"
>>> endpoint_value("Nn1cnnc1N/N=C/c1cc([N+](=O)[O-])c(Cl)cc1Cl [Compound 195]")
"24%"
